Molecular target: T1, Mcl-1, Q07820
T1 chain: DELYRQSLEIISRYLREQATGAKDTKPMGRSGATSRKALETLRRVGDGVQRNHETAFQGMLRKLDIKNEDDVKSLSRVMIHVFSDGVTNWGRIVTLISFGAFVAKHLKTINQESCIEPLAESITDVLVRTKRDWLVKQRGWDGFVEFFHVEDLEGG
Assay: peptide SPOT array, c-Myc-tagged receptor at 1 uM or 100 nM, anti-c-Myc-Cy3
Here, each record is paired with measured SPOT signal as a fraction of Bim BH3's signal on the same receptor and array data.
Attribute Measured: SPOT signal as a fraction of Bim BH3's signal on the same receptor and array

- Binder: "CGDLASLSIDIWTLGEEVDGRRLVVA [BIRC6]"
  Measurement: 0.02
- Binder: "AKFLLYLGHSLSTWGDRMWHFAVSVF [SLC40A1]"
  Measurement: 0.07
- Binder: "LTETSLISGNLHRIGDITSCSVLWLN"
  Measurement: 0.04
- Binder: "NDDTPWIARTDDNLADELTAILSAPA [GBP6]"
  Measurement: 0.04
- Binder: "KEVEDCVPVFLKHIAHDIYVCGKTIN [TUBGCP6]"
  Measurement: 0.02
- Binder: "IGQRQTVVRTLNATGEEIIQQSSKTD [DMD]"
  Measurement: 0.02
- Binder: "GFKTTVYVSHINDLSDFYVQLIEDEA [TDRD6]"
  Measurement: 0.02
- Binder: "DRFEGYCIDLLKELAHILGFSYEIRL [GRIK3]"
  Measurement: 0.02
- Binder: "APEEDFFSIHIRIVLDWTEGLFNACG [CYBB]"
  Measurement: 0.04
- Binder: "SALETQVAAAVQALLDDYLAQLSLEP [TRO]"
  Measurement: 0.02
- Binder: "DVGTGAGLLEIKKILDEYFTFITDCK [CCT3]"
  Measurement: 0.02
- Binder: "RAKASSLSEELKHFADGLETDGTLQK [DSN1]"
  Measurement: 0.05
- Binder: "FRFAQLCGLHIVIHADELEELMCYYQ [CLTCL1]"
  Measurement: 0.02
- Binder: "DDMFEPHSWNDKELSDDCFQQWGVRP [PRCP]"
  Measurement: 0.04
- Binder: "VFDDLRGSVSDSWVGDSTGVILVLTT [SORT1]"
  Measurement: 0.02
- Binder: "LRCEMASTGEDACFGEGIHTAFLKAM [CPS1]"
  Measurement: 0.03
- Binder: "RGAMLSLATGDAHSGSDLSLLVPEIE [FAM115A]"
  Measurement: 0.04
- Binder: "ALNAQPSAEELSKIADSVNLPLDVVK [ZEB1]"
  Measurement: 0.02
- Binder: "NATHEEVVHLDRNAGDEVTITVEYLR [SNTG2]"
  Measurement: 0.01
- Binder: "WLKGDILGEKDVNLADCLCNEDLESR [RNF160]"
  Measurement: 0.04
- Binder: "HPRRESQVRQLAWILDGVWVSIRLDS [MAPK8IP3]"
  Measurement: 0.03
- Binder: "MRPEIWIAQELRRIGDEFNAYYARRV [BCL2L11]"
  Measurement: 1
- Binder: "QAGPVSSGLALRKLGDRVQLLNLLVT [CCDC57]"
  Measurement: 0.57
- Binder: "LTETSLISGNLHRILDITSCSVLWLN"
  Measurement: 0.04
- Binder: "IVGGCVVGIAMARFLDFIRGMLKLIL [DIRC2]"
  Measurement: 0.18
- Binder: "ELQAPATVQSLGLLLDRLCVGAAGGF [CDC42BPG]"
  Measurement: 0.01
- Binder: "NKTMTQLSSTDARCAKDILGFAVMFF [PKD2L1]"
  Measurement: 0.02
- Binder: "CDLLGAKGKDDLYIGDHIFGDILKSK [NT5C2]"
  Measurement: 0.04
